- TEST: Pharmacokinetics of M6G at single and multiple intravenous doses in healthy volunteers
- Type: in vivo, human
- STUDY CONDITIONS: both sexes, human, plasma, iv, 45 mg/70 kg, single 5 min iv infusion 45 mg; Geometric Mean
- Procedure: Healthy male and female subjects were divided into two groups (A and B) with 12 in each. Group A received three single intravenous infusions of M6G over 5 mins at levels of 15, 30 and 45 mg/70 kg in random order, having taken 50 mg of naloxone orally 24 hrs beforehand. […] Vital signs (supine blood pressure, pulse, respiratory rate and oral temperature), respiration rate, pulse oximetry and adverse events were monitored during the study. Plasma levels of M6G were measured using HPLC/ms/ms.
OBSERVABLE: clearance (mL/min)
Hi! Could you send only the number? It should be in mL/min, unit omitted.

Sample CN1CC[C@]23c4c5ccc(O)c4O[C@H]2[C@@H](OC2OC(C(=O)O)C(O)C(O)C2O)C=CC3[C@H]1C5 (stereo partly shown) ; clearance observed: 128

###

- TEST: Pharmacokinetics of M6G at single and multiple intravenous doses in healthy volunteers
- Format: in vivo, human
- STUDY CONDITIONS: both sexes, human, plasma, iv, 30 mg/70 kg, single 5 min iv infusion 30 mg; Median; read-out: t½ (converted)
- Experimental: Healthy male and female subjects were divided into two groups (A and B) with 12 in each. Group A received three single intravenous infusions of M6G over 5 mins at levels of 15, 30 and 45 mg/70 kg in random order, having taken 50 mg of naloxone orally 24 hrs beforehand. […] Vital signs (supine blood pressure, pulse, respiratory rate and oral temperature), respiration rate, pulse oximetry and adverse events were monitored during the study. Plasma levels of M6G were measured using HPLC/ms/ms.
OBSERVABLE: half-life
Report as: number unit

Sample CN1CC[C@]23c4c5ccc(O)c4O[C@H]2[C@@H](OC2OC(C(=O)O)C(O)C(O)C2O)C=CC3[C@H]1C5 (stereo partly shown) [M6G] ; half-life observed: 1.81 h

###

- TEST: Pharmacokinetics of M6G at single and multiple intravenous doses in healthy volunteers
- Format: in vivo, human
- STUDY CONDITIONS: both sexes, human, plasma, intravenous, 15 mg/70 kg, multiple dose, Dose 5-15 mg; Mean; read-out: Vss
OBSERVABLE: Vd (L)
Hi! Could you send only the number? It should be in L, unit omitted.

Sample CN1CC[C@]23c4c5ccc(O)c4O[C@H]2[C@@H](OC2OC(C(=O)O)C(O)C(O)C2O)C=CC3[C@H]1C5 (stereo partly shown) [M6G] ; Vd observed: 12

###

- TEST: Pharmacokinetics of M6G at single and multiple intravenous doses in healthy volunteers
- Format: in vivo, human
- STUDY CONDITIONS: both sexes, human, plasma, intravenous, 15 mg/70 kg, multiple dose, Dose 5-15 mg; Mean; read-out: AUC24-30
OBSERVABLE: AUC (ng·h/mL)
Hi! Could you send only the number? It should be in ng·h/mL, unit omitted.

Sample CN1CC[C@]23c4c5ccc(O)c4O[C@H]2[C@@H](OC2OC(C(=O)O)C(O)C(O)C2O)C=CC3[C@H]1C5 (stereo partly shown) ; AUC observed: 2080

###

- TEST: Pharmacokinetics of M6G at single and multiple intravenous doses in healthy volunteers
- Type: in vivo, human
- STUDY CONDITIONS: both sexes, human, plasma, iv, 45 mg/70 kg, single 5 min iv infusion 45 mg; Geometric Mean; read-out: t½ (converted)
OBSERVABLE: half-life (h)
Hi! Could you send only the number? It should be in h, unit omitted.

Sample CN1CC[C@]23c4c5ccc(O)c4O[C@H]2[C@@H](OC2OC(C(=O)O)C(O)C(O)C2O)C=CC3[C@H]1C5 (stereo partly shown) ; half-life observed: 1.62

###

- TEST: Pharmacokinetics of M6G at single and multiple intravenous doses in healthy volunteers
- Assay type: in vivo, human
- STUDY CONDITIONS: both sexes, human, plasma, iv, 45 mg/70 kg, single 5 min iv infusion 45 mg; Mean
OBSERVABLE: clearance (mL/min)
Hi! Could you send only the number? It should be in mL/min, unit omitted.

Sample CN1CC[C@]23c4c5ccc(O)c4O[C@H]2[C@@H](OC2OC(C(=O)O)C(O)C(O)C2O)C=CC3[C@H]1C5 (stereo partly shown) ; clearance observed: 130

###

- TEST: Pharmacokinetics of M6G at single and multiple intravenous doses in healthy volunteers
- Type: in vivo, human
- STUDY CONDITIONS: both sexes, human, plasma, intravenous, 15 mg/70 kg, multiple dose, Dose 1-15 mg; Median
OBSERVABLE: clearance (mL/min)
Hi! Could you send only the number? It should be in mL/min, unit omitted.

Sample CN1CC[C@]23c4c5ccc(O)c4O[C@H]2[C@@H](OC2OC(C(=O)O)C(O)C(O)C2O)C=CC3[C@H]1C5 (stereo partly shown) [M6G] ; clearance observed: 113

###

- TEST: Pharmacokinetics of M6G at single and multiple intravenous doses in healthy volunteers
- Format: in vivo, human
- STUDY CONDITIONS: both sexes, human, plasma, iv, 30 mg/70 kg, single 5 min iv infusion 30 mg; Mean; read-out: AUC0-∞
OBSERVABLE: AUC(0-inf)

Sample CN1CC[C@]23c4c5ccc(O)c4O[C@H]2[C@@H](OC2OC(C(=O)O)C(O)C(O)C2O)C=CC3[C@H]1C5 (stereo partly shown) [M6G] ; AUC(0-inf) observed: 4190 ng·h/mL

###

- TEST: Pharmacokinetics of M6G at single and multiple intravenous doses in healthy volunteers
- Format: in vivo, human
- STUDY CONDITIONS: both sexes, human, plasma, intravenous, 15 mg/70 kg, multiple dose, Dose 1-15 mg; Mean; read-out: Cmax
OBSERVABLE: Cmax
Report as: number unit

Sample CN1CC[C@]23c4c5ccc(O)c4O[C@H]2[C@@H](OC2OC(C(=O)O)C(O)C(O)C2O)C=CC3[C@H]1C5 (stereo partly shown) ; Cmax observed: 1980 ng/mL

###

- TEST: Pharmacokinetics of M6G at single and multiple intravenous doses in healthy volunteers
- Format: in vivo, human
- STUDY CONDITIONS: both sexes, human, plasma, iv, 15 mg/70 kg, single 5 min iv infusion 15 mg; Median; read-out: Vss
OBSERVABLE: Vd (L)
Hi! Could you send only the number? It should be in L, unit omitted.

Sample CN1CC[C@]23c4c5ccc(O)c4O[C@H]2[C@@H](OC2OC(C(=O)O)C(O)C(O)C2O)C=CC3[C@H]1C5 (stereo partly shown) ; Vd observed: 12.6

###

- TEST: Pharmacokinetics of M6G at single and multiple intravenous doses in healthy volunteers
- Type: in vivo, human
- STUDY CONDITIONS: both sexes, human, plasma, intravenous, 30 mg/70 kg, single 5 min infusion 30 mg/70 kg; read-out: Cmax, Geometric LS means
OBSERVABLE: Cmax (ng/mL)
Hi! Could you send only the number? It should be in ng/mL, unit omitted.

Sample CN1CC[C@]23c4c5ccc(O)c4O[C@H]2[C@@H](OC2OC(C(=O)O)C(O)C(O)C2O)C=CC3[C@H]1C5 (stereo partly shown) ; Cmax observed: 3700

###

- TEST: Pharmacokinetics of M6G at single and multiple intravenous doses in healthy volunteers
- Type: in vivo, human
- STUDY CONDITIONS: both sexes, human, plasma, iv, 30 mg/70 kg, single 5 min iv infusion 30 mg; Mean; read-out: Vss
OBSERVABLE: Vd (L)
Hi! Could you send only the number? It should be in L, unit omitted.

Sample CN1CC[C@]23c4c5ccc(O)c4O[C@H]2[C@@H](OC2OC(C(=O)O)C(O)C(O)C2O)C=CC3[C@H]1C5 (stereo partly shown) ; Vd observed: 12.8

###

- TEST: Pharmacokinetics of M6G at single and multiple intravenous doses in healthy volunteers
- Type: in vivo, human
- STUDY CONDITIONS: both sexes, human, plasma, intravenous, 15 mg/70 kg, multiple dose, Dose 1-15 mg; Geometric Mean; read-out: Cmax
OBSERVABLE: Cmax (ng/mL)
Hi! Could you send only the number? It should be in ng/mL, unit omitted.

Sample CN1CC[C@]23c4c5ccc(O)c4O[C@H]2[C@@H](OC2OC(C(=O)O)C(O)C(O)C2O)C=CC3[C@H]1C5 (stereo partly shown) [M6G] ; Cmax observed: 1840

###

- TEST: Pharmacokinetics of M6G at single and multiple intravenous doses in healthy volunteers
- Type: in vivo, human
- STUDY CONDITIONS: both sexes, human, plasma, iv, 15 mg/70 kg, single 5 min iv infusion 15 mg; Geometric Mean; read-out: Vss
- Description: Healthy male and female subjects were divided into two groups (A and B) with 12 in each. Group A received three single intravenous infusions of M6G over 5 mins at levels of 15, 30 and 45 mg/70 kg in random order, having taken 50 mg of naloxone orally 24 hrs beforehand. […] Vital signs (supine blood pressure, pulse, respiratory rate and oral temperature), respiration rate, pulse oximetry and adverse events were monitored during the study. Plasma levels of M6G were measured using HPLC/ms/ms.
OBSERVABLE: Vd (L)
Hi! Could you send only the number? It should be in L, unit omitted.

Sample CN1CC[C@]23c4c5ccc(O)c4O[C@H]2[C@@H](OC2OC(C(=O)O)C(O)C(O)C2O)C=CC3[C@H]1C5 (stereo partly shown) [M6G] ; Vd observed: 12.9
